- assayed target: human H4 receptor (Homo sapiens, UniProt Q9H3N8)
- Construct: expressed in transfected cells
- Sequence (Q9H3N8 whole entry): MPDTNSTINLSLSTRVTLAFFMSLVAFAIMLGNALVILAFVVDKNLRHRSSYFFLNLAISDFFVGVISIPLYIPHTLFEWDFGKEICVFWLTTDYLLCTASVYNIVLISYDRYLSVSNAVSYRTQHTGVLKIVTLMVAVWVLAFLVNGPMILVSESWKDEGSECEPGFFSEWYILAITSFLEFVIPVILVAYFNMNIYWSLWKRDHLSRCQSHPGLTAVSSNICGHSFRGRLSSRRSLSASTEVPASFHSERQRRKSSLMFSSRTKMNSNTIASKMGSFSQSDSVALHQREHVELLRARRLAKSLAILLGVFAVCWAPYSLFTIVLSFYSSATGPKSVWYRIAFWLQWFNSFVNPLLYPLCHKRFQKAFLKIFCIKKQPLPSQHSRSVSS
- assay comment: [3H]Histamine binding on membranes of CHO cells stably expressing human H4 receptor
experimental readout: Ki or IC50 activity class

Qu. Provide Ki or IC50 activity class, tested on human H4 receptor (Homo sapiens, UniProt Q9H3N8), for CN1CCC(OC(c2cccc(-c3cccc(N)c3)c2)c2nc3ccccc3s2)CC1 (centres unmarked) .
Ans. < 0.3 µM

Qu. Give measured Ki or IC50 activity class for CN1CCC(OC(c2cccc(C#CCCCN)c2)c2nc3ccccc3[nH]2)CC1 (single isomer, unassigned) [Example 566] (human H4 receptor (Homo sapiens, UniProt Q9H3N8)).
Ans. < 0.03 µM

Qu. For human H4 receptor (Homo sapiens, UniProt Q9H3N8), give Ki or IC50 activity class of the listed compound: CN1CCC(OC(c2cccc(CCC3CCNCC3)c2)c2nc3ccccc3[nH]2)CC1 (centres unmarked)
Ans. < 1 µM

Qu. Provide measured Ki or IC50 activity class on human H4 receptor (Homo sapiens, UniProt Q9H3N8) for CN1CCC(OC(c2ccc3cc[nH]c3c2)c2nc3ccccc3[nH]2)CC1 (centres unmarked) please.
Ans. < 0.03 µM

Qu. Enter measured Ki or IC50 activity class, system human H4 receptor (Homo sapiens, UniProt Q9H3N8), for the compound shown: CN1CCC(OC(c2nc3ccccc3[nH]2)c2cc(Br)ccc2F)CC1 (centres unmarked)
Ans. < 0.03 µM

Qu. Provide Ki or IC50 activity class, system human H4 receptor (Homo sapiens, UniProt Q9H3N8), entry CN1CCC(OC(c2cccc(OCC=CCN)c2)c2nc3ccccc3s2)CC1 (centres unmarked)
Ans. < 0.03 µM

Qu. Look up and report Ki or IC50 activity class, with human H4 receptor (Homo sapiens, UniProt Q9H3N8) as system, for CN1CCC(OC(c2cccc(OCCCCO)c2)c2nc3ccccc3s2)CC1 (centres unmarked)
Ans. < 0.3 µM

Qu. Please indicate recorded Ki or IC50 activity class of CN1CCC(OC(c2cccc(OC3CCNC3)c2)c2nc3ccccc3s2)CC1 (centres unmarked) [Example 383] measured with human H4 receptor (Homo sapiens, UniProt Q9H3N8).
Ans. < 0.3 µM

Qu. Please indicate recorded Ki or IC50 activity class of CN1CCC(OC(c2ccsc2)c2nc3ccccc3[nH]2)CC1 (centres unmarked) measured with human H4 receptor (Homo sapiens, UniProt Q9H3N8).
Ans. < 0.3 µM

Qu. Give Ki or IC50 activity class for Cc1ccc2sc(C(OC3CCN(C)CC3)c3ccccc3)nc2c1 (centres unmarked) tested on human H4 receptor (Homo sapiens, UniProt Q9H3N8).
Ans. < 1 µM

Qu. Report value: Ki or IC50 activity class, system: human H4 receptor (Homo sapiens, UniProt Q9H3N8), compound: CN1CCC(OC(c2nc3ccccc3[nH]2)c2ccc3c(c2O)CCCC3)CC1 (centres unmarked)
Ans. < 0.3 µM

Qu. Please respond with reported Ki or IC50 activity class (system human H4 receptor (Homo sapiens, UniProt Q9H3N8)) for CN1CCC(OC(c2cccc(OCCO)c2)c2nc3ccccc3s2)CC1 (centres unmarked) .
Ans. < 0.3 µM

Qu. Please look at CN1CCC(OC(c2cccc(OCc3ccco3)c2)c2nc3ccccc3s2)CC1 (centres unmarked) and tell me its recorded Ki or IC50 activity class on human H4 receptor (Homo sapiens, UniProt Q9H3N8).
Ans. < 0.03 µM

Qu. # return Ki or IC50 activity class for CN1CCC(OC(c2cccc(-c3c[nH]nn3)c2)c2nc3ccccc3[nH]2)CC1 (centres unmarked) , test system: human H4 receptor (Homo sapiens, UniProt Q9H3N8)
Ans. < 0.03 µM

Qu. Provide Ki or IC50 activity class, recorded with human H4 receptor (Homo sapiens, UniProt Q9H3N8), of CN1CCC(OC(c2cccc(SCC3NC(N)=NC3=O)c2)c2nc3ccccc3[nH]2)CC1 (centres unmarked)
Ans. < 0.03 µM

Qu. Report measured Ki or IC50 activity class on human H4 receptor (Homo sapiens, UniProt Q9H3N8); entry: CSCCOc1cccc(C(OC2CCN(C)CC2)c2nc3ccccc3s2)c1 (centres unmarked)
Ans. < 0.3 µM

Qu. Answer with Ki or IC50 activity class of CN1CCC(OC(c2cccc(N3CCC(F)C3)c2)c2nc3ccccc3s2)CC1 (centres unmarked) measured for human H4 receptor (Homo sapiens, UniProt Q9H3N8).
Ans. < 0.03 µM
